- TARGET: T1, Cyno CD47 ECD protein, His-tagged, monomer (cyno)
- T1 construct: extracellular domain; also called cynomolgus CD47
- TEST_PROTOCOL: ProteOn SPR; mAb captured, ECD monomer as analyte
MEASUREMENT_LABEL: Kd (nM)
Numbers only, in nM.

In the examples that follow, each entry is paired with its recorded Kd.
**Query** Name the recorded Kd for C47B215 (antibody, V domains shown, human IgG2sigma/kappa) VH: EVQLVQSGAEVKKPGESLKISCKGSGYSFDDSWIGWVRQMPGKGLEWMGIIYPGDSDTRYSPSFQGQVTISADKSISTAYLQWSSLKASDTAVYYCARVGRFASHQLDYWGQGTLVTVSS VL: EIVLTQSPATLSLSPGERATLSCRASQSVGSRLAWYQQKPGQAPRLLIYWASTRATGIPARFSGSGSGTDFTLTISSLEPEDFAVYYCQQGAYWPFTFGQGTKVEIK .
**Result** 1.44

**Query** Then what about the binder C47B235 (antibody, V domains shown, human IgG2sigma/kappa) VH: EVQLVQSGAEVKKPGESLKISCKGSGYSFDDYWISWVRQMPGKGLEWMGIIYPGDSDTRYSPSFQGQVTISADKSISTAYLQWSSLKASDTAVYYCARVGRFASHQLDYWGQGTLVTVSS VL: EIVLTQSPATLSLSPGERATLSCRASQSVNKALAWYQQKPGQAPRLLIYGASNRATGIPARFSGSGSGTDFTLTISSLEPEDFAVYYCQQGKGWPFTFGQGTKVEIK ?
**Result** 3.06

Note: attention shifts to another entry.
**Query** Requested field: Kd. Item: C47B231 (antibody, V domains shown, human IgG2sigma/kappa) VH: EVQLVQSGAEVKKPGESLKISCKGSGYSFTNYWIGWVRQMPGKGLEWMGIIYPGDSDTRYSPSFQGQVTISADKSISTAYLQWSSLKASDTAVYYCARVGRFASHQLDYWGQGTLVTVSS VL: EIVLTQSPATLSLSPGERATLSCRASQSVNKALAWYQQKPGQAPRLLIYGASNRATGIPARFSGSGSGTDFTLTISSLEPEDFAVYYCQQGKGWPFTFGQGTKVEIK
**Result** 12.3
